Reference source for all entries: patent US20250302775A1

Assay: tissue distribution (TD) assay in mouse, brain and plasma
Format: in vivo, male C57BL/6 mouse
Conditions: male, C57BL/6, mouse, plasma, po, 100 ug/kg
Below, each entry is listed with its recorded AUC.
Give the value in ng·h/mL but do not write ng·h/mL after it.

{"Compound": "CC(C)c1c(O)ccc(Cc2c(Cl)cc(OCC(=O)O)cc2Cl)c1F [LL-341070A]", "Endpoint Unit": "ng·h/mL", "AUC": 35.8}

Please examine the following record next.
Consider the compound shown here: CNC(=O)COc1cc(Cl)c(Cc2ccc(O)c(C(C)C)c2F)c(Cl)c1 What is its recorded AUC?
18.8
